- Tested on: lymphoma cell line DB
- experiment.description: Serial dilutions: fixed ABT-199 concentration with Compound A titration, six-day cell proliferation
- Assay type: cell-based
- assay.context: 144 h, with fixed ABT-199 57 nM, six days, read-out: compound A required for gIC50
measured.parameter: IC50
Include the unit right after the number.

Qu. Tell me the measured IC50 of O=C(NC[C@H](O)CN1CCc2ccccc2C1)c1ccnc(NC2CCC2)c1 [Compound A] , please.
Ans. 247 nM

----------
- Test system: Z-138
- experiment.description: Standard 6-day growth-death assay, Z-138 as control for Compound A
- Format: cell-based
- assay.context: Homo sapiens, 144 h, single agent or fixed 1:1 combination, average of n=2, read-out: gIC50
Quick list: pIC50 per entry.
Keep in mind that pIC50 stands for -log10 of concentration in molar terms.

Qu. Given the entry CC1(C)CCC(CN2CCN(c3ccc(C(=O)NS(=O)(=O)c4ccc(NCC5CCOCC5)c([N+](=O)[O-])c4)c(Oc4cnc5[nH]ccc5c4)c3)CC2)=C(c2ccc(Cl)cc2)C1 [ABT-199, venetoclax, reference compound] , what pIC50 was observed with Z-138?
Ans. 7.85

Qu. # get_value(readout= pIC50, system= Z-138) for O=C(NC[C@H](O)CN1CCc2ccccc2C1)c1ccnc(NC2CCC2)c1 [Compound A]
Ans. 7.42

Taken from patent US20210386738A1.
